# System: rHPIV3-EGFP
# test: 7-Day colorimetric neutral red uptake antiviral assay
# Type: cell-based, human parainfluenza type 3 virus
# cond: Homo sapiens, MA104, 168 h
# if measured EC50 < 20 µg/mL: MET  # else: NOT MET

Prompt: is_below(EC50, 20 µg/mL) for C#Cc1c(C(N)=O)ncn1[C@@H]1O[C@H](CO)[C@@H](O)[C@H]1O ?
Response: MET

Prompt: is_below(EC50, 20 µg/mL) for N=C(N)c1ncn([C@@H]2O[C@H](CO)[C@@H](O)[C@H]2O)n1 ?
Response: NOT MET

Prompt: is_below(EC50, 20 µg/mL) for Nc1cc2c(ncn2[C@@H]2O[C@H](CO)[C@@H](O)[C@H]2O)c(=O)[nH]1 ?
Response: NOT MET

Prompt: is_below(EC50, 20 µg/mL) for O=c1cnn([C@@H]2O[C@H](CO)[C@@H](O)[C@H]2O)c(=S)[nH]1 ?
Response: MET

Prompt: is_below(EC50, 20 µg/mL) for COc1ccc(COn2cnc3c(ncn3[C@@H]3O[C@H](CO)[C@@H](O)[C@H]3O)c2=N)cc1 ?
Response: NOT MET

Prompt: is_below(EC50, 20 µg/mL) for NC(=O)c1c[se]c([C@@H]2O[C@H](CO)[C@@H](O)[C@H]2O)n1 ?
Response: MET

Data provenance: patent US20100316991A1
